Test system: HL-60(TB) leukemia
Assay method text: NCI-60 one-dose screen, 48 h
Condition info: 10 µM unless noted
This is part of a sample that, as a whole, favours compounds with a hit. Of some 83,000 tested, about 20% had one in any assay. Calls of active or inactive are those of the source. The calls were made as follows: active = growth percent below 10; inactive = the rest.
Pick one: true (active), false (inactive)

Example entries and their recorded answers appear below.
| Compound | Cat |
| --- | --- |
| COc1cc(/C=C/C(=O)/C=C/c2cc(OC)c3c(c2)OCO3)cc2c1OCO2 | false |
| COc1ccc2[nH]c(=O)c(/C=C/C(=O)c3ccc(Nc4nccc(-c5ccc6ccccc6c5)n4)cc3)cc2c1 | false |
| CN(C)c1ccc(/C=C/c2cc[n+](C)c(/C=C/c3ccc(N(C)C)cc3)c2)cc1 | true |

*Q* Hello, I am checking results. What call was entered for COc1ccc(OC)c(/C=C/c2nnc(Nc3ccccc3)o2)c1 ?
*A* false

*Q* Per the assay record, what outcome was assigned to O=C1c2cccc3cccc(c23)C(=O)N1N1C(=O)c2cccc3c(N4CCNCC4)ccc(c23)C1=O ?
*A* false

*Q* Hey, what did the test say about COc1cc(NCCCCCN=C(N)NC(N)=NC(C)C)c2ncccc2c1 ?
*A* true

*Q* Recorded call for O=C(Nc1ccc(Nc2ccncc2)cc1)c1ccc(Nc2ccnc3ccc([N+](=O)[O-])cc23)cc1 ?
*A* false

*Q* So what was the verdict on COc1cc(C2NN=C3c4ccccc4CCC32)cc(OC)c1OC (centres undefined) in this test?
*A* false

*Q* Answer briefly: the call reported for COc1cc(C=Nc2oc(-c3ccccc3)c(-c3ccccc3)c2C#N)cc(CN2CCCC2)c1O in this assay.
*A* false

* * *

Tested on: OVCAR-4 ovarian
Assay method text: NCI-60 one-dose screen, 48 h (100 = growth as untreated, 0 = no growth, -100 = all killed)
Condition info: 10 µM unless noted
The panel holds about 83,000 compounds, 20% with a hit somewhere; the sample as a whole holds those more often.
Could you mark each record yes (1) if its growth falls strictly under 90%, and no (0) if it equals or exceeds it?

Completed entries (count: 3):
| Compound | Cat |
| --- | --- |
| OB([O][Hg][c]1ccccc1)[O][Hg][c]1ccccc1 | yes (1) |
| CCOC(=O)/C(C#N)=C/c1ccc(N(CCCl)CCCl)cc1 | yes (1) |
| COc1ccc(C2SCC(=O)Nc3c2c(C)nn3-c2nc3ccc(C)cc3s2)cc1O (centres undefined) | yes (1) |

Could you now look at the following compound, please?
*Q* Dear reviewer, please state whether Cc1ccc(C[As+](c2ccccc2)(c2ccccc2)c2ccccc2)cc1 has growth strictly beneath 90%.
*A* yes (1)

* * *

Tested on: HL-60(TB) leukemia
Assay method text: NCI-60 one-dose screen, 48 h (100 = growth as untreated, 0 = no growth, -100 = all killed)
Condition info: 10 µM unless noted
This is part of a sample that, as a whole, favours compounds with a hit. Of some 83,000 tested, about 20% had one in any assay. Active and inactive are the calls of the source. Rule for the calls: active = growth percent below 10; inactive = the rest.
Measured quantity: growth

Some compounds with recorded growth:
| Test smiles | System tested | growth |
| --- | --- | --- |
| COC(=O)N/N=C/c1c[n+]([O-])c2ccccc2[n+]1[O-] | HL-60(TB) leukemia | 97.2% (inactive) |
| Nc1nc(Nc2ccccc2SSc2ccccc2Nc2nc(N)nc(-c3ccc(C(F)(F)F)cc3)n2)nc(-c2ccc(C(F)(F)F)cc2)n1 | HL-60(TB) leukemia | -17% (active) |
| CC1(C)CC[C@]2(C(=O)Nc3ccccn3)CC[C@]3(C)C(=CC[C@@H]4[C@@]5(C)C/C(=C/c6ccncc6)C(=O)C(C)(C)[C@@H]5CC[C@]43C)[C@@H]2C1 | HL-60(TB) leukemia | -0.971% (active) |

*Q* // output growth; input COc1ccc(NC(=O)c2ccc3c(c2)nc(-c2cc4ccccc4[nH]c2=O)n3-c2cc(C(C)(C)C)[nH]n2)cc1 ; system HL-60(TB) leukemia
*A* 96.8% (inactive)

* * *

System: HL-60(TB) leukemia
Assay method text: NCI-60 one-dose screen, 48 h (100 = growth as untreated, 0 = no growth, -100 = all killed)
Condition info: 10 µM unless noted
Compounds without any hit were thinned out: in the full panel of roughly 83,000, 20% have a hit.
Measured quantity: growth (%)
Answer in %, number only, no unit symbol.

| Compound | Unit info | growth |
| --- | --- | --- |
| CC(C)(C)CC(C)(C)c1ccc(O)c(Cc2ccc(Cl)cc2Cl)c1 | % | -61.6 |
| CCOC(=O)C1CCN(c2ccc(N3C[C@@H](CNCc4ccc(C(=N)N)cc4)OC3=O)cc2)CC1 | % | 101 |
| CCN1CCN(c2nc(NNC(=O)Cc3ccccc3)nc(N3CCN(C(c4ccccc4)c4ccccc4)CC3)n2)CC1 | % | -53.9 |
| CCOC(=O)c1c(Nc2nc3ccccc3s2)sc2c1CCC(=O)C2 | % | 58.7 |

Next up:
*Q* Dear colleague, please send me the reported growth for COc1ccc(CCN2C(=O)/C(=C/c3ccc(C4Oc5ccccc5C5CC(c6cccc(OC)c6)=NN54)cc3)SC2=S)cc1 (stereo not given) when you can.
*A* 99.5

* * *

Tested on: PC-3 prostate
Assay method text: NCI-60 one-dose screen, 48 h (100 = growth as untreated, 0 = no growth, -100 = all killed)
Condition info: 10 µM unless noted
The panel holds about 83,000 compounds, 20% with a hit somewhere; the sample as a whole holds those more often.
Use YES when the recorded growth is no lower than 70%; use NO when it is lower.

Solved entries:
| Compound | Cat |
| --- | --- |
| CC(=O)OC1CCC2(C)C(=CCC3C4CC(CN5CC5)C(=O)C4(C)CCC32)C1 (centres undefined) | YES |
| O=C1NC2(CCNCC2)Nc2ccccc21 | YES |
| CC[C@H](C)[C@H](NC(=O)Nc1ccccc1)C(=O)N(C)[C@H](C[C@@H](OC(C)=O)c1nc(C(=O)N[C@@H](Cc2ccccc2)C[C@H](C)C(=O)OC)cs1)C(C)C | NO |
| COc1ccc(/C=C(/C(=O)N2CCCC2)c2cc(OC)c(OC)c(OC)c2)cc1N | NO |
| O=S(=O)(Cl)c1ccccc1 (tested in a mixture with another compound) | YES |

*Q* Record Oc1c(Br)cc(Br)cc1Br.[Cu+2] ; criterion: growth no lower than 70%. Met?
*A* YES

*Q* Given the entry CCCCCCCCCCOc1ccc(C(=O)Oc2ccc(CSP3(=O)OCC4OC(n5ccc(=O)[nH]c5=O)C(F)C4OP(=O)(O)OCC4OC(n5cnc6c(N)ncnc65)C(F)C4O3)cc2)cc1 (centres undefined) , answer whether its growth meets or surpasses 70%.
*A* YES

*Q* Tell me whether growth is at least 70% here: CCOc1cc(/C=N\Nc2nnc(C)n2N)c(C)cc1N(CCCl)CCCl
*A* NO

* * *

Catalogue of growth readings, one per entry.
Tested on: SK-OV-3 ovarian
Assay method text: NCI-60 one-dose screen, 48 h (100 = growth as untreated, 0 = no growth, -100 = all killed)
Condition info: 10 µM unless noted
This is part of a sample that, as a whole, favours compounds with a hit. Of some 83,000 tested, about 20% had one in any assay.
Number in %, nothing else.

Use these answered entries as a reference point.
| Compound | Unit info | Value |
| --- | --- | --- |
| CCOC(=O)/C(C#N)=C/c1ccc(N(CCCl)CCCl)cc1 | % | 92.6 |
| COc1cc(C2=NN(c3ccccc3)C(c3sc(N(CCCl)CCCl)nc3Cl)C2)cc(OC)c1OC (configuration not stated) | % | 77.7 |
| O=C1c2ccccc2C(=O)N1[N+](=O)[O-] | % | 114 |

*Q* Please give measured growth of the following entry: CCC1CN1P(=O)(OCCOC)N1CC1CC (configuration not stated)
*A* 118

*Q* Consider the compound CC1(C)N=C(N)N=C(N)N1c1ccc(CCCCc2ccc(S(=O)(=O)F)cc2)cc1 . State its measured growth.
*A* 69.1

*Q* Fill in growth for record O=c1[nH]c2cc(Cl)ccc2n1C1CCN(CCCC(c2ccc(F)cc2)c2ccc(F)cc2)CC1
*A* 78.1

*Q* Please indicate growth recorded for CC(/C=N/N=C(N)N)=N\N=C(N)N
*A* 84.9

*Q* Given NC(=O)C(Cl)Cl , respond with its growth.
*A* 109

*Q* Tell me its growth given NC(=O)NC(=O)CI as the entry.
*A* 111

*Q* // fetch growth given entry CC(=O)O[C@H]1CC[C@H]2[C@@H]3CC[C@H]4CC=C(C)C[C@]4(C)[C@H]3CC[C@]12C
*A* 102

*Q* Complete the entry with growth for COC[CH2][Hg][C]#[C][Hg][CH2]COC
*A* 96.5

*Q* Respond only with growth recorded for OB([O][Hg][c]1ccccc1)[O][Hg][c]1ccccc1
*A* -62.7
